target: WRN helicase (Homo sapiens (Human), UniProt Q14191); experiment: In vitro enzymatic activity assay on WRN helicase (DNA dependent ATPase assay, ADP-Glo); type: biochemical; conditions: geometric means of at least 2 determinations; read-out: WRN ATPase Activity (IC50)
Sequence (Q14191 517-1238): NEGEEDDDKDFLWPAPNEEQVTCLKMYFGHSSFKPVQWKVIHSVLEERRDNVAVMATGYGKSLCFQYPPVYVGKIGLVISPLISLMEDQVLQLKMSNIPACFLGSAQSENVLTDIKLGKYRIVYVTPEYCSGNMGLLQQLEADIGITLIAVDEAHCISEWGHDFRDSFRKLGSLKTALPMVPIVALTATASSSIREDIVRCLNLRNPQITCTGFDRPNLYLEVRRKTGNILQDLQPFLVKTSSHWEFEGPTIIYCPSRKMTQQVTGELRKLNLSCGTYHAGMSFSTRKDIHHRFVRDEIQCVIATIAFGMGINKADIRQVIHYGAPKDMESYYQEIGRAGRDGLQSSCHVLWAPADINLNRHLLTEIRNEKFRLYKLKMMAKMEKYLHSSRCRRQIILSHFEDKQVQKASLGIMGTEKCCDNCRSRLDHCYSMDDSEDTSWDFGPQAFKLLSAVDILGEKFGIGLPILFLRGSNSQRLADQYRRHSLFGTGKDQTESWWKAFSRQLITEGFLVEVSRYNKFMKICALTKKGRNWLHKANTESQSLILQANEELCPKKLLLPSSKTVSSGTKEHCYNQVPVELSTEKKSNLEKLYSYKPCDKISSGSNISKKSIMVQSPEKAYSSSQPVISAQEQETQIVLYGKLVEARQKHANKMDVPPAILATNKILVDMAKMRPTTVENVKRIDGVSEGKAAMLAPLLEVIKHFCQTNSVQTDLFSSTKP
Rule: measured IC50 below 200 nM gets YES; anything equal to or greater than 200 nM gets NO.

Please review the following examples before continuing.
{"compound": "CCc1c(N2CCN(C(=O)c3ncccc3O)CC2)c(=O)n2nc(N3CCCC(F)C3)nc2n1CC(=O)Nc1ccc(C(F)(F)F)nc1Cl (racemic) [Example 16]", "class": "NO"}
{"compound": "CCc1c(N2CCN(C(=O)c3ncccc3O)CC2)c(=O)n2nc(C3=CCN(CC(F)F)CC3)nc2n1CC(=O)Nc1ccc(C(F)(F)F)cc1C [Example 115]", "class": "YES"}
{"compound": "CCc1c(N2CCN(C(=O)c3ncccc3O)CC2)c(=O)n2nc(C3=CCCOC3)nc2n1CC(=O)Nc1ccc(C(F)(F)F)cc1C [Example 114]", "class": "YES"}
{"compound": "CCc1c(N2CCN(C(=O)c3ncnc(C)c3O)[C@@H]3CC[C@@H]32)c(=O)n2nc(C3=CCOCC3)nc2n1CC(=O)Nc1ccc(C(F)(F)F)cc1Cl (single isomer, unassigned) [Example 131]", "class": "YES"}
{"compound": "CCc1c(N2CCN(C(=O)c3ncnc(C)c3O)CC2)c(=O)n2nc(C3=CCOCC3)nc2n1CC(=O)Nc1ccc(C(F)(F)F)nc1Cl [Example 47]", "class": "YES"}

Okay, now this compound:
Query block: Does this compound meet the criterion IC50 < 200 nM? CCc1c(N2CCN(C(=O)c3ncccc3O)CC2)c(=O)n2nc(N3CCOCC3)nc2n1CC(=O)Nc1ccc(C(F)(F)F)nc1Cl [Example 10]
Result block: NO
